Biological target: T1, B7-H3 on tumour cells (MDA-MB-468 cells, N87 cells) (UniProt Q5ZPR3 29-534, limits assumed)
T1 construct: whole, on cells
T1 sequence (looked up): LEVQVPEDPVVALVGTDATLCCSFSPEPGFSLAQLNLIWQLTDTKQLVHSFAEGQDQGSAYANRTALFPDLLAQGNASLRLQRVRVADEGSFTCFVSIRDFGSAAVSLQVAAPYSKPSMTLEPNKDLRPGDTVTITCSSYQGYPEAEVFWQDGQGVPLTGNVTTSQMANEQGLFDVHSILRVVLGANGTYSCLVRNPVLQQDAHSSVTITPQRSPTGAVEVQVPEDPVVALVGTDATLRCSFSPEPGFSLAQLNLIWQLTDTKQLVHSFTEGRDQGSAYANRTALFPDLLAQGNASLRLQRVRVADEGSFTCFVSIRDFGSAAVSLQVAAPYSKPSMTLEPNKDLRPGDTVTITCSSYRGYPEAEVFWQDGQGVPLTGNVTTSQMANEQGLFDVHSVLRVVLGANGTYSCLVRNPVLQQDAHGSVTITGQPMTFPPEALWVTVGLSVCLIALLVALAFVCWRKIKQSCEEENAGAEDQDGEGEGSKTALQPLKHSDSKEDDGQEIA
Experiment: flow cytometry on MDA-MB-468 cells, PE goat anti-human IgG Fc secondary; blank 0.9% in the positive gate
endpoint: % of cells in positive gate V1-R at 3.7 nM (%)
// note: answer is a bare numeric in %

1) antibody V3 (antibody, human IgG1, kappa, V domains shown, Humanized from chimeric antibody M1; expressed in HEK293F cells; also called humanized antibody V3) VH: EVQLVQSGAEVKKSGESLKISCKASGYTFTDYDINWVRQMPGKGLEWIGWIFPGDDTTKYNEKFKGQVTLSADKSTNTAYMQWSSLKASDTAMYYCARSPSFDYWGQGTLVTVSS VL: QIVLTQSPGTLSLSPGERATLSCSASSTIGFMYWYQQKPGQAPRRWIYDTSKLASGVPDRFSGSGSGTDYTLTISRLEPEDFAVYYCHQRSSYPTFGQGTKVEIKR: 94
2) antibody V1 (antibody, human IgG1, kappa, V domains shown, Humanized from chimeric antibody M1; expressed in HEK293F cells; also called humanized antibody V1) VH: EVQLVQSGAEVKKSGESLKISCKASGYTFTDYDINWVRQMPGKGLEWMGWIFPGDDTTKYNEKFKGQVTISADKSTNTAYLQWSSLKASDTAMYYCARSPSFDYWGQGTLVTVSS VL: QIVLTQSPGTLSLSPGERATLSCSASSTIGFMYWYQQKPGQAPRRWIYDTSKLASGVPDRFSVSGSGTDYTLTISRLEPEDFAVYYCHQRSSYPTFGQGTKVEIKR: 92.7
3) antibody M1 (antibody, human IgG1, kappa, V domains shown, Chimeric antibody, murine variable regions on the IgG1 constant region; expressed in HEK293F cells; also called chimeric antibody M1) VH: QVQLQQSGPELVKPGASVRISCKASGYTFTDYDINWVQQRPGQGLEWIGWIFPGDDTTKYNEKFKGRATLTADKSSNTAYMQLNGLTSENSAVYFCARSPSFDYWGQGTLVTVSS VL: QIVLTQSPAIMSASPGERVTMTCSASSTIGFMYWYQQKPGTSPKRWIYDTSKLASGVPARFSVSGSGTSYSLTISSMEAEDAATYYCHQRSSYPTFGGGTKLEIKR: 98.7

Next up:
[Q] Quick one: % of cells in positive gate V1-R at 3.7 nM of antibody V5 (antibody, human IgG1, kappa, V domains shown, Humanized from chimeric antibody M1; expressed in HEK293F cells; also called humanized antibody V5) VH: QVQLVQSGAEVKKPGASVKVSCKASGYTFTDYDINWVRQAPGQRLEWIGWIFPGDDTTKYNEKFKGRATLTADKSASTAYMELSSLRSEDTAVYYCARSPSFDYWGQGTLVTVSS VL: QIVLTQSPSSLSASVGDRVTITCSASSTIGFMYWYQQKPGKAPKRWIYDTSKLASGVPSRFSVSGSGTDYTLTISSLQPEDFATYYCHQRSSYPTFGQGTKVEIKR ?
[A] 92.6
